Emax values by entry
Molecular target: Glutamate NMDA receptor; Grin1/Grin2b (Rattus norvegicus) (UniProt P35439+Q00960)
Assay: Positive allosteric modulation of recombinant rat GluN1alpha/GluN2B receptor expressed in HEK293 cells assessed as potentiation of glutamate-induced current response at 0.3 to 300 uM at holding potential -60mV by whole cell voltage clamp method relative to control
Assay type: cell-based
QUANTITY: Emax (%)

[
  {
    "SAMPLE SMILES": "CC[C@H]1CC[C@H]2[C@@H]3CC=C4C[C@@H](OC(=O)CC(=O)O)CC[C@]4(C)[C@H]3CC[C@]12C",
    "EXPERIMENTAL VALUE": 71
  },
  {
    "SAMPLE SMILES": "C[C@@]12CCC[C@H]1[C@@H]1CC=C3C[C@@H](OC(=O)CCCC(=O)O)CC[C@]3(C)[C@H]1CC2",
    "EXPERIMENTAL VALUE": 348
  },
  {
    "SAMPLE SMILES": "C[C@@]12CCC[C@H]1[C@@H]1CC=C3C[C@@H](OC(=O)CC(=O)O)CC[C@]3(C)[C@H]1CC2",
    "EXPERIMENTAL VALUE": 236
  },
  {
    "SAMPLE SMILES": "CC[C@H]1CC[C@H]2[C@@H]3CC=C4C[C@@H](OC(=O)CCCC(=O)O)CC[C@]4(C)[C@H]3CC[C@]12C",
    "EXPERIMENTAL VALUE": 209
  },
  {
    "SAMPLE SMILES": "CC[C@H]1CC[C@H]2[C@@H]3CC=C4C[C@@H](OC(=O)CCC(=O)O)CC[C@]4(C)[C@H]3CC[C@]12C",
    "EXPERIMENTAL VALUE": 133
  },
  {
    "SAMPLE SMILES": "C[C@@]12CCC[C@H]1[C@@H]1CC=C3C[C@@H](OC(=O)CCCCCC(=O)O)CC[C@]3(C)[C@H]1CC2",
    "EXPERIMENTAL VALUE": 109
  }
]
